STUDY SYSTEM: T1, FLT3xCD3 TCE SEQ ID NO 93
T1 construct: Single-chain scFv-scFv-scFc T cell engager; also called FLT3×CD3ε TCE; FLT3_7 A8xCD3-scFc Bispecific HLE molecule
TEST: SPR, peptide immobilised on CM5 (PDEA), TCE as analyte, kinetic 1:1 fit
Where no end group is shown, it is not given here. [ ]: non-standard residue; d: D form. pGlu = O=C1CC[C@@H](C(=O)O)N1
RESULT TYPE: pKd
Would you please state pKd, meaning minus log10 of the concentration in mol/L, as a bare number?

# pKd of [pGlu]DGEEELKGC [pGlu-DGEEELKGC] = 8.14

# pKd of [pGlu]DGNEELKGC (also called ID 14974) [pGlu-DGNEELKGC] = 8.89

# pKd of [pGlu]DGTEELKGC (Position 1 is written E for pGlu) [pGlu-DGTEELKGC] = 8.05
